Below, each entry is listed with its recorded relative β-galactosidase activity, inducer Tb.
System: lacZ under control of the tetA promoter (PtetA) in E. coli KM3
Type: cell-based
Details: Table 4; tribenuron 20 ppm; 48 hrs at 30° C.

Recorded results for 5 molecules are shown here.
molecule: L1-24: SU-responsive TetR(B) variant, library L1 hit (protein, Sulfonylurea responsive repressor L1-24) MGSRLDKSKVINSALELLNEVGIEGLTTRKLAQKLGVEQPTLYWHVKNKRALLDALAIEMLDRHNTHFCPLEGESWQDFLRNSAKSMRCALLSHRDGAKVLLGTAVTEKQYETTENSLAFLCQQGFSLENALYAIRAVRTFTLGCVLVDQERQVAKEERETPTTDSMPPLLRQAKELLDHQGAEPAFLFGLELIICGLEKQLKCESGS
result: 1.6
--
molecule: L1-31: SU-responsive TetR(B) variant, library L1 hit (protein, Sulfonylurea responsive repressor L1-31) MGSRLDKSKVINSALELLNEVGIEGLTTRKLAQKLGVEQPTLYWHVKNKRALLDALAIEMLDRHATHFCPLEGESWQDFLRNNAKSMRCALLSHRDGAKVMLGTRATEKQYETVENRLAFLCQQGFSLENALYAVRAVHWFTLGCVLIDQEMQVAKEERETPTTDSMPPLLRQAYELYDHQGAEPAFLFGLELIICGLEKQLKCESGS
result: 0.1
--
molecule: L1-28: SU-responsive TetR(B) variant, library L1 hit (protein, Sulfonylurea responsive repressor L1-28) MGSRLDKSKVINSALELLNEVGIEGLTTRKLAQKLGVEQPTLYWHVKNKRALLDALAIEMLDRHATHFCPLEGESWQDFLRNNAKSMRCALLSHRDGAKVWLGTAWTEKQYETPENVLAFLCQQGFSLENALYASRAVVTFTLGCVLTDQEKQVAKEERETPTTDSMPPLLRQAWELLDHQGAEPAFLFGLELIICGLEKQLKCESGS
result: 0.3
--
molecule: L1-29: SU-responsive TetR(B) variant, library L1 hit, SEQ ID NO: 10 (protein, Sulfonylurea responsive repressor L1-29) MGSRLDKSKVINSALELLNEVGIEGLTTRKLAQKLGVEQPTLYWHVKNKRALLDALAIEMMDRHQTHFCPLEGESWQDFLRNTAKSMRCALLSHRDGAKVWLGTRWTEKQYETPENMLAFLCQQGFSLENALYAWSAVCNFTLGCVLSDQERQVAKEERETPTTDSMPPLLRQAWELSDHQGAEPAFLFGLELIICGLEKQLKCESGS
result: 0.3
--
molecule: L1-2: SU-responsive TetR(B) ligand binding domain variant, library L1 hit, SEQ ID NO: 3 (protein, Sulfonylurea responsive repressor L1-02) MGSRLDKSKVINSALELLNEVGIEGLTTRKLAQKLGVEQPTLYWHVKNKRALLDALAIEMLDRHATHFCPLEGESWQDFLRNNAKSFRCALLSHRDGAKVCLGTAVTEKQYETMENILAFLCQQGFSLENALYARRAVIAFTLGCVLWDQEYQVAKEERETPTTDSMPPLLRQARELIDHQGAEPAFLFGLELIICGLEKQLKCESGS
result: 1.7

Let's switch to this molecule now.
// relative β-galactosidase activity, inducer Tb lookup, key: L1-20: SU-responsive TetR(B) variant, library L1 hit, SEQ ID NO: 6 (protein, Sulfonylurea responsive repressor L1-20) MGSRLDKSKVINSALELLNEVGIEGLTTRKLAQKLGVEQPTLYWHVKNKRALLDALAIEMMDRHQTHFCPLEGESWQDFLRNNAKSMRCALLSHRDGAKVFLGTAWTEKQYETVENLLAFLCQQGFSLENALYALNAVATFTLGCVLWDQEKQVAKEERETPTTDSMPPLLRQAHELGDHQGAEPAFLFGLELIICGLEKQLKSESGS
2.6
